Source of measurements: the supplement of paper PMC9732359

# Protocol description: protein stability index of a GFP-peptide fusion (yeast GPS) (PSI 1-4); higher = more stable; sorted into four equal gates, so the index is relative within each strain
# Measurement context: doa10∆
Endpoint: protein stability index
Give your answer as a number; write no unit.

Sure, the documented protein stability index for VAFDNINTHIETLAYNS [SNF2] is 2.56

Sure, the documented protein stability index for NNESNKNNNGDEKNKNN [MED2] is 3.21

Sure, the documented protein stability index for EHRRYDDQLKQRRQNIR [RPT4] is 2.62

Others:
Sure, the documented protein stability index for KAPKIQRLVTPQRLQRK [RPS6A] is 2.77

Sure, the documented protein stability index for LSLGEAFKKIDAITVKD [COR1] is 3.39

Sure, the documented protein stability index for KLKGLMKLNILDERFAS [IRR1] is 2.29

Sure, the documented protein stability index for LTSQAPQTTQMFQSQSQ [YDL088C/ASM4] is 3.12

Sure, the documented protein stability index for MDWLDNWGRKEHDLLRQ [ITC1] is 3.22

###

# Protocol description: protein stability index of a GFP-peptide fusion (yeast GPS) (PSI 1-4); higher = more stable; sorted into four equal gates, so the index is relative within each strain
# Measurement context: ubr1∆
Endpoint: protein stability index
Give your answer as a number; write no unit.

Some solved cases for reference:
Sure, the documented protein stability index for SLQEDVSFDFNGVPGQA [MED8] is 3

Sure, the documented protein stability index for MLRRHAAPPSTNFEILN [DIS3] is 2.93

Sure, the documented protein stability index for LNSTLESLYDLIEFQPS [MED6] is 2.76

Others:
Sure, the documented protein stability index for TEENKANTNSVTSMEAA [YIL149C/MLP2] is 3.13

Sure, the documented protein stability index for PAQKDSSVVSEPKKPSF [YOR098C/NUP1] is 2.89

Sure, the documented protein stability index for PLLLVGLDKFSNIDIRV [RPS16A] is 2.11

Sure, the documented protein stability index for LIIRNDSLSGAVIAAIM [RPT3] is 3.12

Sure, the documented protein stability index for VELPYGAHGYSGFYTFS [PRE1] is 2.83

Sure, the documented protein stability index for VEESSEKKQKTESQDVE [DPB4] is 3.03

Sure, the documented protein stability index for CAYTGTGDVLLIQDLLH [RPN1] is 2.8

Sure, the documented protein stability index for RDEMSKAELPQWYTLQS [MED8] is 3.01

Sure, the documented protein stability index for ANKEKKRAEKAARKAEK [RPL24B] is 3.52

Sure, the documented protein stability index for ASRNVWSFYNGNVLIND [SNU114] is 2.99

Sure, the documented protein stability index for VSTEGNVPQTLAPVPYE [RPL21A] is 3.05

Sure, the documented protein stability index for KTVKELRQLLKERYTVE [RRI1] is 3.06

Sure, the documented protein stability index for LAKSKASLTAARTAANS [RPN6] is 2.7

Sure, the documented protein stability index for SFHVQKKTCSSCGYPAA [RPL37A] is 2.06

Sure, the documented protein stability index for RNKRAVQLPILKIIYTG [YJL039C/NUP192] is 2.02

Sure, the documented protein stability index for QIEGPFLIIVPKSTLDN [ISW2] is 1.75

Sure, the documented protein stability index for VAHSSRLANLIDYKLRV [SMB1] is 3.17

###

# Protocol description: protein stability index of a GFP-peptide fusion (yeast GPS) (PSI 1-4); higher = more stable; sorted into four equal gates, so the index is relative within each strain
# Measurement context: doa10∆
Please mark fulfilled if the recorded protein stability index is equal to or greater than 3, and not fulfilled if it falls below.

Incoming: Reported protein stability index at or above 3? LVSTLTTGISSTGAADG [SMC2]
Outgoing: not fulfilled

Incoming: Reported protein stability index at or above 3? LQPLEEGLIIDTDKLPI [SIN4]
Outgoing: not fulfilled

Incoming: Reported protein stability index at or above 3? DFDLFKEVLPDLQNLNL [YJL039C/NUP192]
Outgoing: fulfilled

Incoming: Reported protein stability index at or above 3? TMHTKTYAAEIAHNISA [RPL32]
Outgoing: not fulfilled

Others:
Incoming: Reported protein stability index at or above 3? IKKIVADLKKGKDLSPA [QCR2]
Outgoing: fulfilled

Incoming: Reported protein stability index at or above 3? RVLITQRHIAVGKQIVN [RPS9A]
Outgoing: not fulfilled

Incoming: Reported protein stability index at or above 3? YARADTHFLLNIYDQLR [RRP6]
Outgoing: not fulfilled

Incoming: Reported protein stability index at or above 3? PQLSKAGKFPTPVSHND [RPL1A]
Outgoing: not fulfilled

Incoming: Reported protein stability index at or above 3? ADLPGSYNLEYIESKFC [YMR129W/POM152]
Outgoing: fulfilled

Incoming: Reported protein stability index at or above 3? TRQFEGRSNEIVKTTTK [PRP8]
Outgoing: fulfilled

###

# Protocol description: protein stability index of a GFP-peptide fusion (yeast GPS) (PSI 1-4); higher = more stable; sorted into four equal gates, so the index is relative within each strain
# Measurement context: doa10∆
Endpoint: protein stability index

Some solved cases for reference:
Sure, the documented protein stability index for ITVVLGVNGYIWLRKTS [RRP4] is 1.61

Sure, the documented protein stability index for ISDDDDSALRYSILGDR [POP4] is 3.12

Sure, the documented protein stability index for LLDDKKLMDEDSVATVI [YJR042W/NUP85] is 3.06

Sure, the documented protein stability index for CAYTGTGDVLLIQDLLH [RPN1] is 3.01

Sure, the documented protein stability index for KADDDSVTIISAGNDKM [ASC1] is 3.24

Sure, the documented protein stability index for VIYRGPEPSHIDQVMMS [RET1] is 3.01

Others:
Sure, the documented protein stability index for KNINIGKHSQEQNSSSA [SIR4] is 3

###

# Protocol description: protein stability index of a GFP-peptide fusion (yeast GPS) (PSI 1-4); higher = more stable; sorted into four equal gates, so the index is relative within each strain
# Measurement context: doa10∆
Please mark 1 if the recorded protein stability index is equal to or greater than 2, and -1 if it falls below.

Incoming: Reported protein stability index at or above 2? VSNSGAQDEEIHKQIVI [UBP6]
Outgoing: 1

Incoming: Reported protein stability index at or above 2? ETDNEMNGNGKPGIPRG [SIR3]
Outgoing: 1

Incoming: Reported protein stability index at or above 2? GTISIQLKNGLLEKYNT [MTR3]
Outgoing: 1

###

# Protocol description: protein stability index of a GFP-peptide fusion (yeast GPS) (PSI 1-4); higher = more stable; sorted into four equal gates, so the index is relative within each strain
# Measurement context: pdr5∆
Category key, based on recorded protein stability index: low (below 2), moderate (2 to below 3), high (3 or more)

Below are worked cases with known answers.
Incoming: Categorize the following entry: NVPVHVSPAFRVQVGDI [RPS11A]
Outgoing: high

Incoming: Categorize the following entry: GIDPTRIYTNSFIDIME [RPO21]
Outgoing: moderate

Incoming: Categorize the following entry: NGDEGDDENEPKRKRRL [YOR098C/NUP1]
Outgoing: high

Incoming: Categorize the following entry: SKDIETLKKEWLKEYED [YIL149C/MLP2]
Outgoing: high

Incoming: Categorize the following entry: QMSLEANVVDITNDWEQ [YJR042W/NUP85]
Outgoing: moderate

Incoming: Categorize the following entry: ELLDQVTLGREGQIIQR [CDC53]
Outgoing: high

Incoming: Categorize the following entry: SLNNSDSLISGVKQKIT [BRR2]
Outgoing: low

Incoming: Categorize the following entry: KKNNLEFGTYGKYVIAG [RPN14]
Outgoing: moderate

Incoming: Categorize the following entry: GQLTGIYRYKYKVMHQI [PRP8]
Outgoing: moderate

Incoming: Categorize the following entry: EAVELVIGLDSEHDKKR [YML103C/NUP188]
Outgoing: high

Others:
Incoming: Categorize the following entry: FYDIRSLLERHIPRLIP [YJL039C/NUP192]
Outgoing: moderate

Incoming: Categorize the following entry: FGKLAFPTRLGQGYRKV [YJL039C/NUP192]
Outgoing: low

Incoming: Categorize the following entry: HKISFSGTKSEVLTYVN [YJL039C/NUP192]
Outgoing: moderate

###

# Protocol description: protein stability index of a GFP-peptide fusion (yeast GPS) (PSI 1-4); higher = more stable; sorted into four equal gates, so the index is relative within each strain
# Measurement context: doa10∆
Listed sequences paired with reported protein stability index
Give your answer as a number; write no unit.

Sure, the documented protein stability index for QRRGPLVVYAEDNGIVK [RPL4A] is 3.43

Others:
Sure, the documented protein stability index for AAKGSSTSYAIKKKDEL [RPS5] is 3.4

Sure, the documented protein stability index for LTKFRQKLMQLVVLTDV [RGR1] is 1.26
